For each entry below, report its ECLU confirmatory assay value.
molecular target: serum sample IHUS#B09032311A3; experiment: ECL displacement assay, variant competes with tagged SEQ ID NO:1
Numbers only, in ECLU.

Worked set:
Example 1C: (A14P, R39Q, K83R, T91Y, Q108L) (SEQ ID NO: 28) (VHH) VHH: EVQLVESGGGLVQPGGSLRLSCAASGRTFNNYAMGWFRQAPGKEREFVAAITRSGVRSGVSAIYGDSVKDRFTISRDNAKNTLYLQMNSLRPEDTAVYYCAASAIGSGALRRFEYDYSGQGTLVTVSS = 228
Example 1C: (K83R) (SEQ ID NO: 25) (VHH) VHH: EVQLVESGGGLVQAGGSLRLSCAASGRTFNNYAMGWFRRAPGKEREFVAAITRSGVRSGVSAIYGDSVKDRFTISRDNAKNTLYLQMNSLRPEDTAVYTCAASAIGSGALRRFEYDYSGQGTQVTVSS = 1400
Example 1C: wildtype VHH (SEQ ID NO: 23) (VHH) VHH: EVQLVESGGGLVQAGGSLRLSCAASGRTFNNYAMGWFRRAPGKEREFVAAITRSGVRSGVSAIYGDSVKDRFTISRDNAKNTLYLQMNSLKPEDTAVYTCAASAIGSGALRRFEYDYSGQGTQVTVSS = 1780
Example 1C: (A14P, K83R, Q108L) (SEQ ID NO: 27) (VHH) VHH: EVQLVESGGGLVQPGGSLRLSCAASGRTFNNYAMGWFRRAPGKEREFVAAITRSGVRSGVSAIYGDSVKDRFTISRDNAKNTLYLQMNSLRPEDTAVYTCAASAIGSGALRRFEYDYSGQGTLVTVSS = 156

Dear reader, for each entry below, please note its ECLU confirmatory assay.
1. Example 1C: (A14P) (SEQ ID NO: 24) (VHH) VHH: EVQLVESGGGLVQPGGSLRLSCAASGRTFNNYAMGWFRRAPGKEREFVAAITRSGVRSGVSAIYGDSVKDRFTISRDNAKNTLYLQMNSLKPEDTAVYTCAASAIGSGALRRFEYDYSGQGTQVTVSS
2. Example 1C: (Q108L) (SEQ ID NO: 26) (VHH) VHH: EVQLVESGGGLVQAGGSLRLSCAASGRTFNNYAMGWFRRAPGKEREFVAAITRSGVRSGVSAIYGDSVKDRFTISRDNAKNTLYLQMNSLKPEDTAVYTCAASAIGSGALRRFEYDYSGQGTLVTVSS

Found:
1: 205; 2: 1530

Entry source: patent US20140205597A1
